half-life at 1 μM values by entry
Assay: Metabolic stability in mouse liver microsomes (MLM) with or without ANF
Format: in vitro ADME
Conditions: CD-1, mouse, liver microsomes, 1 μM compound, without ANF
// unit must come after the numeric part

Please review the following examples before continuing.
> print(dat)
                                   molecule  recorded.measurement
1  CCS(=O)(=O)c1ccc2oc(C34Cc5ccccc5C(C3)C4)nc2c1 [50a]                94 min
2  CCS(=O)(=O)c1ccc2oc(-c3ccc4c(c3)C3CC(C4)C3)nc2c1 [50c]                48 min
3  CCS(=O)(=O)c1ccc2oc(-c3ccc4c(c3)CC3CC4C3)nc2c1 [50b]                40 min

Okay, next one:
[in] For the molecule CCS(=O)(=O)c1ccc2oc(-c3ccc4ccccc4c3)nc2c1 [Ezutromid, ezutromid, reference compound] , what half-life at 1 μM is on record?
[out] 60 min
